# System: Plasmodium falciparum Sir2 (PF13_0152, Sir2A)
# Method Notes: pfSir2 binders on small-molecule microarrays, primary screen, biochemical, small-molecule microarray, 635 nm fluorescence (AID 1098);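 further: score merges spot fluorescence intensity with its signal-to-noise ratio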
# Settings: small-molecule microarray binding, fluorescence 635 nm; higher = more signal
Parameter: composite z-score. Scope: all listed entries.
Respond with the number and no other words.

Would you please look over these solved cases?
Molecule	Value
COC(=O)[C@@]1(Cc2ccccc2)[C@H]2c3cc(C(=O)N4CCCC4)n(CCN4CNCC4=O)c3C[C@H]2CN1C(=O)c1ccccc1	0.0939
N#Cc1ccc(NN2C(C(O)CCc3ccccc3)C=CC3C(=O)N(c4ccccc4)C(=O)C32)cc1 (centres undefined)	0.712
COCCOC(=O)N1C(=O)[C@@]2(c3cc(C#CCC(C(=O)OC)C(=O)OC)ccc31)[C@H](C(=O)N1CCN(c3ncccn3)CC1)[C@H]1C(=O)O[C@H](c3ccccc3)[C@H](c3ccccc3)N1[C@@H]2c1ccc(O)cc1	1.25

Fill blank: measured composite z-score of the molecule O=C(O)[C@@H]1Cc2c([nH]c3ccccc23)[C@@H](c2ccccc2)N1 is ____.
0.0269

---

# Method Notes: anti-His antibody binders, primary screen, artefact control for SMM control protein annotation, biochemical, small-molecule microarray, 635 nm fluorescence (AID 1128);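 further: score merges feature fluorescence with signal-to-noise for each printed compound spot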
# Settings: anti-His Alexa647 antibody binding, higher = more signal
Measurement Name: composite z-score
Respond with the number and no other words.

Compound	Measurement Name	Value
COCC(=C=CC[C@H](O)c1ccc(OCCO)cc1)C[C@H](O)c1ccccn1	composite z-score	-0.0301
COC(=O)[C@@]1(Cc2ccc(OC)cc2)[C@H]2c3cc(C(=O)N(C)C)n(CCc4ccc(OC)c(Br)c4)c3C[C@H]2CN1C(=O)c1ccccc1	composite z-score	2.28
C=C(CCCC)C(=O)CC[C@@H](OC(C)=O)c1ccccc1OCCO	composite z-score	-0.848
CC(C)CNC(=O)[C@@]1(C)c2ccccc2C(=O)N(Cc2ccc(OC(F)(F)F)cc2)[C@H]1c1ccc(CO)cc1	composite z-score	0.206
C#C[C@H](O[Si](C#Cc1ccccc1)(C(C)C)C(C)C)c1ccccc1	composite z-score	0.126
CO[C@H]1COC(=O)CC=C[C@@H](C)COC(=O)[C@@H](C)NC(=O)CC=C[C@@H]1C	composite z-score	-0.505
C=CC(=O)O[C@@H](Cc1ccccc1)[C@H]1C2C=CCCC=C2CN1Cc1cccc(Cl)c1 (stereo partly drawn)	composite z-score	-0.0091

Let us examine a further case.
Fill blank: measured composite z-score of the compound [N-]=[N+]=NCc1ccccc1C[C@@]1(C(=O)N2CCOCC2)N=C(c2ccc(OCCCO)cc2)O[C@@H]1c1ccccc1N=[N+]=[N-] is ____.
1.8

---

# Method Notes: A549 lung cancer cell viability effects, profiling panel, resazurin fluorescence, 24 h, PK04 Diversity Set (AID 1171)
# Settings: higher = more signal, called active from +8 up or from −8 down
Parameter: z-score. Scope: all listed entries.
Respond with the number and no other words.

Compound	z-score
Cc1ccc(N2C(=O)c3ccccc3[C@@H](C(=O)NCc3ccccc3)[C@@H]2c2ccc(CO)cc2)nc1	0.737
C#CCCCON=C1C[C@@H](O)[C@@H](O)[C@@H]2[C@@H]3C(=O)N(Cc4ccc5c(c4)OCO5)C(=O)[C@@H]3CC[C@@H]12	0.414
C=CCC(OC(C)=O)[C@@H]1[C@@H](N(Cc2cccc3ccccc23)C(=O)Cc2ccc(F)cc2)c2cc(OCCCO)ccc2N1C(=O)Cc1ccc2ccccc2c1 (some centres not stated)	0.775
O=C1C2C=CC(C(O)C(c3ccccc3)c3ccccc3)N(Nc3ccc([N+](=O)[O-])cc3)C2C(=O)N1c1ccccc1 (configuration not stated)	0.452
COC(=O)C[C@H]1O[C@]2(C(=O)N(C)c3ccccc32)[C@@H](C)[C@@H]1[Si](C)(C)c1ccc(OC)cc1	-0.767
C=CCC(OC(C)=O)[C@@H]1[C@@H](N(Cc2cc3ccccc3o2)C(=O)Cc2ccc(F)cc2)c2cc(OCCCO)ccc2N1C(=O)c1ccc(-c2ccccc2)cc1 (some centres not stated)	1.18

Fill blank: measured z-score of the compound CC(C)[C@H]1NC(=O)[C@@]23C(=O)N[C@@H](Cc4ccccc4)C2[C@H](C)[C@@]2(C)O[C@H]2C3/C=C/C/C=C\CNC(=O)[C@H](C)NC1=O (some centres not stated) is ____.
0.0653

---

# Method Notes: basal MM1S mitochondrial membrane potential changes, profiling panel, cell-based, JC-1 fluorescence, 24 h, 100 nL compound (AID 1170)
# Settings: higher = more signal
Measurement Name: z-score

Molecule	z-score
COC(=O)C1=CC(c2ccc(CO)cc2)=CC(c2cccs2)N(Cc2cccc(OC(F)(F)F)c2)C=C1C(=O)OC (stereo not drawn)	-0.459

Fill blank: measured z-score of the molecule COC(=O)Cn1c(C(=O)N2CCCC2)cc2c1C[C@H]1CN(C(=O)c3ccccc3)[C@@](Cc3ccc(OC)cc3)(C(=O)OC)[C@@H]21 is ____.
-1.95

Fill blank: measured z-score of the molecule C=CCOC(=O)[C@@H]1[C@H]2C(=O)O[C@H](c3ccccc3)[C@H](c3ccccc3)N2[C@H](c2ccc(OCCOC(=O)[C@H]3C[C@H]4C(=O)N[C@@H](CCCCNC(C)=O)C(=O)N4[C@H]3c3ccc(O)cc3)cc2)[C@@]12C(=O)Nc1ccc(I)cc12 is ____.
-0.99

Fill blank: measured z-score of the molecule CCCC=C(CCC)[C@@H](NS(=O)(=O)c1cccc(C(F)(F)F)c1)c1ccc(C(=O)OC)cc1 is ____.
-1.04

Fill blank: measured z-score of the molecule COCCOC(=O)N1C(=O)[C@@]2(c3cc(C#CCCO)ccc31)[C@H](C(=O)N1CCCCCCC1)[C@H]1C(=O)O[C@H](c3ccccc3)[C@H](c3ccccc3)N1[C@@H]2c1ccc(O)cc1 is ____.
0.0272

Fill blank: measured z-score of the molecule C[C@@H]1NC(=O)CC=C[C@@H](C)[C@@H]2C=C[C@H](O)[C@@H](COC(=O)[C@H](C)NC(=O)CC=C[C@@H](C)[C@@H]3C=C[C@H](O)[C@@H](COC1=O)O3)O2 is ____.
0.665

---

# Method Notes: basal RPMI8226 viability, no added stimulus, profiling panel, cell-based, calcein-AM fluorescence, 48 h, PK04 Diversity Set (AID 1166);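 further: cells grown under basal conditions without added stimulus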
# Settings: RPMI8226 myeloma viability, higher = more signal
Checkbox rule: z-score lower than -1 = Y; z-score not lower than -1 = N.

Dear reviewer, please state whether CO[C@H]1COC(=O)[C@H](C)NC(=O)CC=C[C@@H](C)[C@H](NS(=O)(=O)c2ccc(C)cc2)COC(=O)CC=C[C@@H]1C has z-score strictly beneath -1.
N

Dear reviewer, please state whether O=C1OCCC=C[C@H]2OC34C=CCN(Cc5ccccc5)C(=O)[C@H]3N(CCO)C(=O)[C@@H]4C12 (some centres undefined) has z-score strictly beneath -1.
N

---

# Test system: XIP peptide (Xip251-270) binding
# Method Notes: small-molecule binders of XIP peptide, primary screen, biochemical, small-molecule microarray, fluorescence 635/667 nm, 0.1 µg/mL protein (AID 1182)
# Settings: fluorescent protein binding, 635 nm, higher = more signal, called active from +8 up or from −8 down
Measurement Name: composite z-score
Respond with the number and no other words.

Would you please look over these solved cases?
CCN1C(C)=C(C(=O)OC)[C@@H](c2ccccc2)N2C(=O)[C@@]3(C(=O)OC)O[C@@]12[C@@H]1C(=O)N(C)C(=O)[C@@H]13 1.38
COC(=O)C1=C(C)N(Cc2ccccc2)c2c(C(=O)OC)c(C(=O)OC)c(C(=O)OC)c(=O)n2[C@@H]1c1ccccc1 0.17

Fill blank: measured composite z-score of the compound CO[C@@H]1COC(=O)CC=C[C@@H](C)[C@H](OC)COC(=O)CC=C[C@H]1C is ____.
-0.583

---

Parameter: composite z-score. Scope: all listed entries.
# Method Notes: small-molecule microarray binders of probe aNog, primary screen, biochemical, biotinylated probe, 635/667 nm fluorescence (AID 1115);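 further: probe is biotinylated aNog protein used at 0.15 µg/mL for 1 h at 4 C; z-score combines 667 nm fluorescence of each spot with its signal to noise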
# Settings: higher = more signal
Respond with the number and no other words.

Compound	Value
CC(=O)Nc1ccc([C@H]2[C@H](C)CC[C@H]3C(=O)N4[C@@H](CC[C@@H](C)[C@@H]4c4ccc(NC(C)=O)cc4)C(=O)N32)cc1	0.33
Cc1ccc(S[C@]2(C(=O)O)CC(=O)N(Cc3ccccc3)[C@@H]2c2ccc(CO)cc2)cc1	-0.0563
CC(=O)NCCCC[C@@H]1NC(=O)[C@@H]2C[C@H](C(=O)NCCCCCCN(C)C)[C@H](c3ccc(O)cc3)N2C1=O	1.01
COC(=O)Cn1c(C(=O)N2CCCC2)cc2c1C[C@H]1CN(C(=O)c3ccccc3)[C@@](Cc3ccc(OC)cc3)(C(=O)OC)[C@@H]21	1.83
CC(C)C[C@@H]1NC(=O)[C@H](CC(C)C)NC(=O)[C@@]23C(=O)N[C@@H](Cc4ccccc4)C2[C@H](C)[C@@]2(C)O[C@H]2C3/C=C/CC/C=C/CNC1=O (some centres not stated)	-0.261

Fill blank: measured composite z-score of the compound CCc1cccc(NC(=O)O[C@H]2[C@H](OC(=O)Nc3ccccc3)[C@@H](OC(=O)Nc3ccccc3)[C@@H](OC)O[C@@H]2CO)c1 is ____.
1.34

Fill blank: measured composite z-score of the compound C[C@]1(C(=O)NCCN2CCOCC2)c2ccccc2C(=O)N(Cc2ccccc2)[C@H]1c1ccc(CO)cc1 is ____.
-0.195

The measured values listed here are drawn from PubChem BioAssay.
